Below: a set of entries, each annotated with reported pIC50.
Biological target: UniProtKB P10635
Sequence (P10635 whole entry): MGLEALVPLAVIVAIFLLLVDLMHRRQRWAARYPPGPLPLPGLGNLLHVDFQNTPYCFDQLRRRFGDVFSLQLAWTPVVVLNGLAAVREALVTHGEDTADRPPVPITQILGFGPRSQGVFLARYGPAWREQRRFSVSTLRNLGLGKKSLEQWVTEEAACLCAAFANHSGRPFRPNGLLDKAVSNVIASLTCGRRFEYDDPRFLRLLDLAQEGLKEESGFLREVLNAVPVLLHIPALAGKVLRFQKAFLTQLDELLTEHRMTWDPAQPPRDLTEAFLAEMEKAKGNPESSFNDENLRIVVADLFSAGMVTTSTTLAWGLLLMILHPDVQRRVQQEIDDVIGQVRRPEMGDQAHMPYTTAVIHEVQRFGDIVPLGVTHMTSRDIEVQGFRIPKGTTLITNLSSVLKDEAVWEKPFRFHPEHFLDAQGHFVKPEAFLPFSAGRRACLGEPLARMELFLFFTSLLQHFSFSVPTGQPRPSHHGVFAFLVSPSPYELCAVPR
Assay: Inhibition of CYP2D6 (unknown origin) by luciferase reporter assay in presence of NADPH regeneration system
Reminder that pIC50 is minus the log10 of a molar concentration.

Record excerpt, results attached:
>>> measured("O=C(c1ccc(F)cc1)N1CCn2c(nnc2-c2ccccn2)C1")
4.82
>>> measured("C[C@@H]1c2nnc(-c3csc(-c4ccc(F)cc4F)n3)n2CCN1C(=O)c1ccc(-c2cccs2)cc1")
5.15
>>> measured("CC(C)c1nc(-c2nnc3n2CCN(C(=O)c2ccc(-c4cccs4)cc2)[C@@H]3C)co1")
4.19

Recorded result, C[C@@H]1c2nnc(-c3csc(-c4ccccc4)n3)n2CCN1C(=O)c1ccc(F)cc1 , pIC50: 4.27

Recorded result, CC(C)c1nc(-c2nnc3n2CCN(C(=O)c2ccc(-c4cccs4)cc2)[C@@H]3C)cs1 , pIC50: 4.57

Recorded result, Cc1cccc(-c2nnc3n2CCN(C(=O)c2ccc(-c4cccs4)cc2)[C@@H]3C)n1 , pIC50: 4.07

Recorded result, Cc1csc(-c2nnc3n2CCN(C(=O)c2ccc(-c4cccs4)cc2)[C@@H]3C)n1 , pIC50: 4.38

----------
Below: a set of entries, each annotated with reported logD.
Assay: Lipophilicity, log D of the compound at pH 7.4
Type: physicochemical
Details: buffer, read-out: logD
# print the numeric value only

Record excerpt, results attached:
>>> measured("CC(=O)N(C)C1(c2ccccc2)CCN(CCC[C@]2(c3ccc(Cl)c(Cl)c3)CCCN(C(=O)c3ccccc3)C2)CC1")
3.4
>>> measured("Cc1csc(-c2nnc3n2CCN(C(=O)c2ccc(-c4cccs4)cc2)[C@@H]3C)n1")
2.9

Recorded result, Cc1nc(-c2nnc3n2CCN(C(=O)c2ccc(-c4cccs4)cc2)C3)cs1 , logD: 2.9

Recorded result, Cc1cccc(-c2nnc3n2CCN(C(=O)c2ccc(F)cc2)[C@@H]3C)n1 , logD: 1.6

Recorded result, Cc1nc(-c2nnc3n2CCN(C(=O)c2ccc(F)cc2)[C@@H]3C)cs1 , logD: 1.3

Recorded result, Cc1noc(-c2nnc3n2CCN(C(=O)c2ccc(-c4cccs4)cc2)[C@@H]3C)n1 , logD: 2.2

Recorded result, C[C@@H]1c2nnc(-c3csc(C(F)(F)F)n3)n2CCN1C(=O)c1ccc(-c2cccs2)cc1 , logD: 4.1

Recorded result, Cc1cccc(-c2nnc3n2CCN(C(=O)c2ccc(-c4cccs4)cc2)[C@@H]3C)n1 , logD: 3.4

Recorded result, Cc1nc(-c2nnc3n2CCN(C(=O)c2ccc(-c4cccs4)cc2)[C@@H]3C)cs1 , logD: 3.1

----------
Test system: Rattus norvegicus
Experiment: Unbound AUC in Sprague-Dawley rat at 1 mg/kg, iv by LC-MS/MS analysis
Assay type: ADME, organism-based
Design: dose 1 mg/kg, route intravenous
Details: in vivo
Quick rule for you: fAUC at 0.5 µM·min or higher means 1, lower means 0.

Examples from the recorded data:
>>> discrete_label("Cc1nc(-c2nnc3n2CCN(C(=O)c2ccc(-c4cccs4)cc2)[C@@H]3C)cs1")
1
>>> discrete_label("Cc1noc(-c2nnc3n2CCN(C(=O)c2ccc(-c4cccs4)cc2)[C@@H]3C)n1")
1
>>> discrete_label("C[C@@H]1c2nnc(-c3csc(-c4ccc(F)cc4F)n3)n2CCN1C(=O)c1ccc(-c2cccs2)cc1")
0

Exam item: decide whether the reported fAUC for CC(=O)N(C)C1(c2ccccc2)CCN(CCC[C@]2(c3ccc(Cl)c(Cl)c3)CCCN(C(=O)c3ccccc3)C2)CC1 [OSANETANT] is at least 0.5 µM·min.
0

Exam item: decide whether the reported fAUC for CC(C)c1nc(-c2nnc3n2CCN(C(=O)c2ccc(-c4cccs4)cc2)[C@@H]3C)co1 is at least 0.5 µM·min.
1

----------
Experiment: Solubility of the compound in PBS buffer at pH 7.4 by shake-flask method
Format: physicochemical
Quick rule for you: solubility thermodynamic at 10 µM or higher means t, lower means f.

Examples from the recorded data:
>>> discrete_label("C[C@@H]1c2nnc(-c3csc(-c4ccc(F)cc4F)n3)n2CCN1C(=O)c1ccc(-c2cccs2)cc1")
"f"
>>> discrete_label("C[C@@H]1c2nnc(-c3csc(C(F)(F)F)n3)n2CCN1C(=O)c1ccc(-c2cccs2)cc1")
"t"
>>> discrete_label("Cc1cccc(-c2nnc3n2CCN(C(=O)c2ccc(F)cc2)[C@@H]3C)n1")
"t"

Exam item: decide whether the reported solubility thermodynamic for O=C(c1cccc(F)c1)N1CCn2c(nnc2-c2ccccn2)C1 is at least 10 µM.
t

Exam item: decide whether the reported solubility thermodynamic for CC(C)c1nc(-c2nnc3n2CCN(C(=O)c2ccc(-c4cccs4)cc2)[C@@H]3C)co1 is at least 10 µM.
t

Exam item: decide whether the reported solubility thermodynamic for Cc1nc(-c2nnc3n2CCN(C(=O)c2ccc(-c4cccs4)cc2)C3)cs1 is at least 10 µM.
t

Exam item: decide whether the reported solubility thermodynamic for Cc1ccc(-c2nnc3n2CCN(C(=O)c2ccc(F)cc2)C3)nc1 is at least 10 µM.
t

Exam item: decide whether the reported solubility thermodynamic for N#CC(c1ccccn1)c1ccnc(N2CCN(C(=O)c3ccc(F)cc3)CC2)n1 (stereo not given) is at least 10 µM.
f

Exam item: decide whether the reported solubility thermodynamic for Cc1nc(-c2nnc3n2CCN(C(=O)c2ccc(-c4cccs4)cc2)[C@@H]3C)cs1 is at least 10 µM.
t

----------
Molecular target: Substance-K receptor (Homo sapiens, UniProt P21452)
Sequence (P21452 whole entry): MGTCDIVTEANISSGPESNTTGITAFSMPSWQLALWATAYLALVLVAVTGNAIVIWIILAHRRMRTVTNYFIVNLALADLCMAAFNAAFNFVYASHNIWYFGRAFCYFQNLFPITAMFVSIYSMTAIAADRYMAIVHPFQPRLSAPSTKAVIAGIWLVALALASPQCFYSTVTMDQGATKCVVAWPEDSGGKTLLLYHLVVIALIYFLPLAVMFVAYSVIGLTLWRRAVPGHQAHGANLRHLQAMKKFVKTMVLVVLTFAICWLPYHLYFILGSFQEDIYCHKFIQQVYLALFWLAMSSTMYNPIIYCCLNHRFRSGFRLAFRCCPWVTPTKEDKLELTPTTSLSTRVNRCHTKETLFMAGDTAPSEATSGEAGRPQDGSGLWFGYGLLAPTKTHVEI
Assay: Displacement of [125I]-neurokinin A from human NK2R after 90 mins by scintillation counting analysis
Observable: pKi
Reminder that pKi is minus the log10 of a molar concentration.

>>> measured("CC(C)c1nc(-c2nnc3n2CCN(C(=O)c2ccc(-c4cccs4)cc2)[C@@H]3C)co1")
5.00

Recorded result, C[C@@H]1c2nnc(-c3csc(-c4ccc(F)cc4F)n3)n2CCN1C(=O)c1ccc(-c2cccs2)cc1 , pKi: 6.10

Recorded result, Cc1nsc(-c2nnc3n2CCN(C(=O)c2ccc(-c4cccs4)cc2)[C@@H]3C)n1 , pKi: 4.90

----------
Target: Kappa-type opioid receptor (Homo sapiens) (UniProt P41145)
Sequence (P41145 whole entry): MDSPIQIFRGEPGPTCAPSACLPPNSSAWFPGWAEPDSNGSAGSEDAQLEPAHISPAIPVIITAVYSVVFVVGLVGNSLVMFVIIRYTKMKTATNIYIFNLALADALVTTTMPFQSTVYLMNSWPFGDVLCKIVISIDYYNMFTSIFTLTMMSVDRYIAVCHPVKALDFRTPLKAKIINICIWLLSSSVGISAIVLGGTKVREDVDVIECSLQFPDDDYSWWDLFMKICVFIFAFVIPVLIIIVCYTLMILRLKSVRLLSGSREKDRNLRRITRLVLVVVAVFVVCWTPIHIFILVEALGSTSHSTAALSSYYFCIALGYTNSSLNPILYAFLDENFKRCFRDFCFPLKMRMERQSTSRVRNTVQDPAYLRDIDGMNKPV
Experiment: Inhibition of KOR (unknown origin) at 10 uM relative to control
Below: a set of entries, each annotated with reported inhibition.
Numeric answer only, unit % assumed.

Record excerpt, results attached:
>>> measured("Cc1nc(-c2nnc3n2CCN(C(=O)c2ccc(-c4cccs4)cc2)[C@@H]3C)cs1")
25
>>> measured("CC(=O)N(C)C1(c2ccccc2)CCN(CCC[C@]2(c3ccc(Cl)c(Cl)c3)CCCN(C(=O)c3ccccc3)C2)CC1")
100
>>> measured("Cc1nsc(-c2nnc3n2CCN(C(=O)c2ccc(-c4cccs4)cc2)[C@@H]3C)n1")
42
>>> measured("Cc1noc(-c2nnc3n2CCN(C(=O)c2ccc(-c4cccs4)cc2)[C@@H]3C)n1")
23
>>> measured("CC[C@H](NC(=O)c1c(O)c(-c2ccccc2)nc2ccccc12)c1ccccc1")
12

Kindly consider the entry below.
Recorded result, CC(C)c1nc(-c2nnc3n2CCN(C(=O)c2ccc(-c4cccs4)cc2)[C@@H]3C)co1 , inhibition: 41

----------
Below: a set of entries, each annotated with reported Kp uu at 1 h.
Assay: Ratio of unbound drug level in brain to plasma in Sprague-Dawley rat at 1 mg/kg, iv measured at 60 mins
Details: brain and plasma

Record excerpt, results attached:
>>> measured("Cc1nc(-c2nnc3n2CCN(C(=O)c2ccc(-c4cccs4)cc2)[C@@H]3C)cs1")
0.1
>>> measured("C[C@@H]1c2nnc(-c3csc(-c4ccc(F)cc4F)n3)n2CCN1C(=O)c1ccc(-c2cccs2)cc1")
2.5
>>> measured("Cc1noc(-c2nnc3n2CCN(C(=O)c2ccc(-c4cccs4)cc2)[C@@H]3C)n1")
0.4

Recorded result, CC(C)c1nc(-c2nnc3n2CCN(C(=O)c2ccc(-c4cccs4)cc2)[C@@H]3C)co1 , Kp uu at 1 h: 0.2

----------
Assay: Ratio of unbound drug level in brain to plasma in Sprague-Dawley rat at 1 mg/kg, iv measured at 10 mins
Conditions: brain and plasma
Below: a set of entries, each annotated with reported Kp uu at 10 min.
# print the numeric value only

Record excerpt, results attached:
>>> measured("Cc1nc(-c2nnc3n2CCN(C(=O)c2ccc(-c4cccs4)cc2)[C@@H]3C)cs1")
0.2
>>> measured("CC(C)c1nc(-c2nnc3n2CCN(C(=O)c2ccc(-c4cccs4)cc2)[C@@H]3C)co1")
0.2
>>> measured("C[C@@H]1c2nnc(-c3csc(-c4ccc(F)cc4F)n3)n2CCN1C(=O)c1ccc(-c2cccs2)cc1")
1.9

Kindly consider the entry below.
Recorded result, Cc1noc(-c2nnc3n2CCN(C(=O)c2ccc(-c4cccs4)cc2)[C@@H]3C)n1 , Kp uu at 10 min: 0.6
